# EXPERIMENTAL_TARGET: Aurora A (Homo sapiens)
# Construct: cell lysates from Jurkat cells (ATCC TIB-152) used; endogenous in cells; host or cells: Jurkat cells (ATCC TIB-152), treated with pervanadate
# Sequence (O14965 1-403): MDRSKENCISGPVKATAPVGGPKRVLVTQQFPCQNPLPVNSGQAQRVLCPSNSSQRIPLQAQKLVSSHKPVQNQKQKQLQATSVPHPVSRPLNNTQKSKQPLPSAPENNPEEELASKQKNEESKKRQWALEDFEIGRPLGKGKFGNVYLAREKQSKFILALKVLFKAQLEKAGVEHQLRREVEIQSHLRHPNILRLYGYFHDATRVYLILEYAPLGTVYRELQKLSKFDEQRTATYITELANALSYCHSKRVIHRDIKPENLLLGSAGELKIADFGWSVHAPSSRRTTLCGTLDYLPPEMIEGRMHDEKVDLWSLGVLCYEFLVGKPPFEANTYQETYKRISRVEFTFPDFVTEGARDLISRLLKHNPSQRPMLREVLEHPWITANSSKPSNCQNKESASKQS
# EXPERIMENT_DESCRIPTION: Kinobeads assay, Aurora A
# Type: binding
ASSAY_METRIC: JAK3/AurA Fold Selectivity

[
  {
    "MOLECULE": "Cn1cc(Nc2ncc3cnn(Cc4cccc(N5CC6(COC6)C5)c4)c3n2)cn1",
    "ASSAY_METRIC": "JAK3/AurA Fold Selectivity",
    "OBSERVED_RESULT": "10-50 Fold"
  }
]

JAK3/AurA Fold Selectivity measured on "Cn1cc(Nc2ncc3cnn(Cc4cccc(N5CCNCC5)c4F)c3n2)cn1" = >50 Fold

JAK3/AurA Fold Selectivity measured on "Cn1cc(Nc2ncc3cnn(Cc4cccc(N5CCC6(COC6)C5)c4)c3n2)cn1" = 10-50 Fold

JAK3/AurA Fold Selectivity measured on "CCCn1cc(-c2cccc(Cn3ncc4cnc(Nc5cnn(C)c5)nc43)c2)cn1" = 10-50 Fold

* * *

# EXPERIMENTAL_TARGET: JAK2 (Homo sapiens)
# Construct: endogenous in cells
# Sequence (O60674 whole entry): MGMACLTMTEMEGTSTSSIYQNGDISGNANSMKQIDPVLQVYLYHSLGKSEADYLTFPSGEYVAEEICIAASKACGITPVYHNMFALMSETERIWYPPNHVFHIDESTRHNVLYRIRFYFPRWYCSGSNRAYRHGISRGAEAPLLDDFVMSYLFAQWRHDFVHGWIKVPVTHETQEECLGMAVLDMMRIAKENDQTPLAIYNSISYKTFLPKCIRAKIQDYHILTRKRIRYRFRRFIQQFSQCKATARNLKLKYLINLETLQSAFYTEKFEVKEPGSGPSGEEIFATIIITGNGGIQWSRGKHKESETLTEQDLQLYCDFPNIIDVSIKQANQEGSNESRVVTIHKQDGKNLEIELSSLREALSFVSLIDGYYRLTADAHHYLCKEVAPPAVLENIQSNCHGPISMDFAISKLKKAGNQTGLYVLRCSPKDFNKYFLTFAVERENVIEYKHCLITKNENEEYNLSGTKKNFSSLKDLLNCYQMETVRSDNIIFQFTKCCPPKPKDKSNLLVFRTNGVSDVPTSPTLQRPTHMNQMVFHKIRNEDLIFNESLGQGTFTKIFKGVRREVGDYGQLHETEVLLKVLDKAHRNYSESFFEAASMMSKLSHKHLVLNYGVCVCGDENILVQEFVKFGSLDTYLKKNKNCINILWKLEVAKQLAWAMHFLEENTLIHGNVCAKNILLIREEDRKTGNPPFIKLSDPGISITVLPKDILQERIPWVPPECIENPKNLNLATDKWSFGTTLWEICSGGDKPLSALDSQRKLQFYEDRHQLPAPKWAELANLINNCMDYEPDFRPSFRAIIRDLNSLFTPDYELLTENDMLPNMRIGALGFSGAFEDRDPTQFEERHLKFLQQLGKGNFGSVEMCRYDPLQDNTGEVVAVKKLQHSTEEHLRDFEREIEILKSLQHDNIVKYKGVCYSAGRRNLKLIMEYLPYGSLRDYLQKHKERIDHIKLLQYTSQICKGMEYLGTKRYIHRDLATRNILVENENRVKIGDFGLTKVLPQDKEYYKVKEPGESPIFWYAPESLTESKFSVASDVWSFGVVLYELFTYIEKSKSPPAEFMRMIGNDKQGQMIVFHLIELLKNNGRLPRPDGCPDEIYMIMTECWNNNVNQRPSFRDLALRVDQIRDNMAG
# EXPERIMENT_DESCRIPTION: Kinobeads assay, JAK2
# TEST_CONTEXT: mixed Molt4/Ramos lysate, read-out: Inhibition values (IC50) JAK2
ASSAY_METRIC: IC50

Some solved cases for reference:
[
  {
    "COMPOUND": "Cn1cc(Nc2ncc3cnn(Cc4cc(N5CCNCC5)cc(F)c4F)c3n2)cn1",
    "EXPERIMENTAL_TARGET": "JAK2 (Homo sapiens)",
    "IC50": "1 to 10 µM"
  },
  {
    "COMPOUND": "CCCn1cc(-c2cccc(Cn3ncc4cnc(Nc5cnn(C)c5)nc43)c2)cn1",
    "EXPERIMENTAL_TARGET": "JAK2 (Homo sapiens)",
    "IC50": "≥ 10 µM"
  },
  {
    "COMPOUND": "CNCCCn1cc(Nc2ncc3cnn(Cc4cc(F)cc(N5CCOCC5=O)c4)c3n2)cn1",
    "EXPERIMENTAL_TARGET": "JAK2 (Homo sapiens)",
    "IC50": "1 to 10 µM"
  },
  {
    "COMPOUND": "O=C1COCCN1c1cc(F)cc(Cn2ncc3cnc(Nc4cnn(CCO)c4)nc32)c1F",
    "EXPERIMENTAL_TARGET": "JAK2 (Homo sapiens)",
    "IC50": "0.1 to 1 µM"
  },
  {
    "COMPOUND": "O=C1CC(Cn2cc(Nc3ncc4cnn(Cc5cc(F)cc(N6CCOCC6=O)c5)c4n3)cn2)CN1 (stereo not shown)",
    "EXPERIMENTAL_TARGET": "JAK2 (Homo sapiens)",
    "IC50": "1 to 10 µM"
  },
  {
    "COMPOUND": "O=C1COCCN1c1cc(F)cc(Cn2ncc3cnc(Nc4cnn(CCO)c4)nc32)c1",
    "EXPERIMENTAL_TARGET": "JAK2 (Homo sapiens)",
    "IC50": "1 to 10 µM"
  },
  {
    "COMPOUND": "O=C(CCn1cc(Nc2ncc3cnn(Cc4cccc(N5CCOCC5)c4)c3n2)cn1)NC1CC1",
    "EXPERIMENTAL_TARGET": "JAK2 (Homo sapiens)",
    "IC50": "≥ 10 µM"
  },
  {
    "COMPOUND": "Cn1cc(Nc2ncc3cnn(Cc4cccc(N5CCOCC5)c4Cl)c3n2)cn1",
    "EXPERIMENTAL_TARGET": "JAK2 (Homo sapiens)",
    "IC50": "1 to 10 µM"
  }
]

IC50 measured on "Cn1cc(Nc2ncc3cnn(Cc4cccc(N5CCNCC5=O)c4)c3n2)cn1" = ≥ 10 µM

IC50 measured on "Cn1cc(Nc2ncc3cnn(Cc4cccc(-c5cnn(C)c5)c4F)c3n2)cn1" = 1 to 10 µM

IC50 measured on "Cn1cc(Nc2ncc3cnn(Cc4cccc(N5CCN(S(C)(=O)=O)CC5)c4)c3n2)cn1" = ≥ 10 µM

IC50 measured on "O=C1COCCN1c1cccc(Cn2ncc3cnc(Nc4cnn(CCO)c4)nc32)c1F" = 1 to 10 µM

IC50 measured on "CCn1cc(-c2cccc(Cn3ncc4cnc(Nc5cnn(C)c5)nc43)c2)cn1" = 1 to 10 µM

IC50 measured on "Cn1cc(Nc2ncc3cnn(Cc4c(F)c(F)cc(N5CCOCC5=O)c4F)c3n2)cn1" = 1 to 10 µM

* * *

# EXPERIMENTAL_TARGET: Aurora A (Homo sapiens, UniProt O14965)
# Construct: cell lysates from Jurkat cells (ATCC TIB-152) used; endogenous in cells
# EXPERIMENT_DESCRIPTION: Kinobeads assay, Aurora A
# TEST_CONTEXT: lysate of pervanadate-treated Jurkat cells, read-out: Inhibition values (IC50) Aur A
pIC50: −log10 of the molar value.
ASSAY_METRIC: pIC50

Some solved cases for reference:
[
  {
    "COMPOUND": "CCCn1cc(-c2cccc(Cn3ncc4cnc(Nc5cnn(C)c5)nc43)c2)cn1 [Example 119]",
    "pIC50": "5.00 to 6.00"
  },
  {
    "COMPOUND": "CC(CN(C)C)Cn1cc(Nc2ncc3cnn(Cc4cccc(N5CCOCC5)c4)c3n2)cn1 (stereo not shown) [Example 32]",
    "pIC50": "5.00 to 6.00"
  },
  {
    "COMPOUND": "Cn1cc(Nc2ncc3cnn(Cc4cccc(N5CCOCC5)c4F)c3n2)cn1 [Example 21]",
    "pIC50": "6.00 to 7.00"
  }
]

pIC50 measured on Cn1cc(Nc2ncc3cnn(Cc4c(F)ccc(N5CCOCC5=O)c4F)c3n2)cn1 [Example 69] = > 7.00

* * *

# EXPERIMENTAL_TARGET: Aurora B (Homo sapiens, UniProt Q96GD4)
# Construct: cell lysates from Jurkat cells (ATCC TIB-152) used; endogenous in cells; host or cells: Jurkat cells (ATCC TIB-152), treated with pervanadate
# Sequence (Q96GD4 whole entry): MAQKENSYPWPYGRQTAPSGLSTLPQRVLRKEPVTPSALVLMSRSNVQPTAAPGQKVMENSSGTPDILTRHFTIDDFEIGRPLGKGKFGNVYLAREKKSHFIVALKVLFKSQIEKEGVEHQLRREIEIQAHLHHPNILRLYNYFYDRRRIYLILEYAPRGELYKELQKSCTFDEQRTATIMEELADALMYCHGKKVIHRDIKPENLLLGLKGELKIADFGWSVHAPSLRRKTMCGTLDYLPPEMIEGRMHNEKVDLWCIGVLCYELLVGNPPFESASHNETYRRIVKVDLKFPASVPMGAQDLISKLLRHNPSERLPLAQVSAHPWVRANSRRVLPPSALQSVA
# EXPERIMENT_DESCRIPTION: Kinobeads assay, Aurora B
# Format: binding
Quick reference: JAK3/AurB Fold Selectivity of the listed items.

Some solved cases for reference:
[
  {
    "SAMPLE_SMILES": "CN(C)CCCn1cc(Nc2ncc3cnn(Cc4c(F)c(F)cc(N5CCOCC5)c4F)c3n2)cn1",
    "JAK3/AurB Fold Selectivity": "10-50 Fold"
  },
  {
    "SAMPLE_SMILES": "Cn1cc(Nc2ncc3cnn(Cc4cc(F)cc(N5CCNCC5)c4F)c3n2)cn1",
    "JAK3/AurB Fold Selectivity": "10-50 Fold"
  },
  {
    "SAMPLE_SMILES": "Cn1cc(Nc2ncc3cnn(Cc4cccc(N5CCC(F)(F)CC5)c4)c3n2)cn1",
    "JAK3/AurB Fold Selectivity": "10-50 Fold"
  },
  {
    "SAMPLE_SMILES": "O=C(c1cccc(Cn2ncc3cnc(Nc4cnn(CCO)c4)nc32)c1F)N1CCOCC1",
    "JAK3/AurB Fold Selectivity": ">50 Fold"
  },
  {
    "SAMPLE_SMILES": "Cn1cc(Nc2ncc3cnn(Cc4cccc(N5CCOCC5)n4)c3n2)cn1",
    "JAK3/AurB Fold Selectivity": "10-50 Fold"
  }
]

JAK3/AurB Fold Selectivity measured on "CN(C)CCCn1cc(Nc2ncc3cnn(Cc4cccc(N5CCOCC5=O)c4)c3n2)cn1" = >50 Fold

JAK3/AurB Fold Selectivity measured on "C[C@@H]1COCCN1c1cccc(Cn2ncc3cnc(Nc4cnn(C)c4)nc32)c1" = >50 Fold

JAK3/AurB Fold Selectivity measured on "OCCn1cc(Nc2ncc3cnn(Cc4cccc(N5CCOCC5)c4)c3n2)cn1" = >50 Fold

JAK3/AurB Fold Selectivity measured on "OCCn1cc(Nc2ncc3cnn(Cc4cccc(N5CCNCC5)c4F)c3n2)cn1" = 3-10 Fold

JAK3/AurB Fold Selectivity measured on "CNCCCn1cc(Nc2ncc3cnn(Cc4cc(F)cc(N5CCOCC5=O)c4)c3n2)cn1" = 3-10 Fold

JAK3/AurB Fold Selectivity measured on "Cn1cc(Nc2ncc3cnn(Cc4cc(F)cc(N5CCNCC5)c4)c3n2)cn1" = >50 Fold

JAK3/AurB Fold Selectivity measured on "OCCn1cc(Nc2ncc3cnn(Cc4c(F)c(F)cc(N5CCOCC5)c4F)c3n2)cn1" = 10-50 Fold

JAK3/AurB Fold Selectivity measured on "Cn1cc(Nc2ncc3cnn(Cc4cc(F)cc(-c5cnn(C)c5)c4)c3n2)cn1" = >50 Fold

JAK3/AurB Fold Selectivity measured on "Cn1cc(-c2cccc(Cn3ncc4cnc(Nc5cnn(CCO)c5)nc43)c2)cn1" = >50 Fold

Where do the numbers come from? From patent US9040545B2.
